molecular target: glutathione S-transferase (Homo sapiens, UniProt P09211); assay: GST inhibition (1-chloro-2,4-dinitrobenzene, 340 nm); conditions: Cheng-Prusoff equation
Sequence (P09211 2-210 limits assumed): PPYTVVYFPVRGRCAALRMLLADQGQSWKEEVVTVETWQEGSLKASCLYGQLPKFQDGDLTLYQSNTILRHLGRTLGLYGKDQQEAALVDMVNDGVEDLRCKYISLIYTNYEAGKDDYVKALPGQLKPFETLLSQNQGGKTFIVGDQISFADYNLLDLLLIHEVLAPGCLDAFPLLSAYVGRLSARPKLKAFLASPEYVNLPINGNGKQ
# maps each entry to its Ki
Write down the numeric answer in µM and omit the unit.

[[record]]
molecule = "CC1(C)CC[C@]2(C(=O)O)CC[C@]3(C)C(=CC[C@@H]4[C@@]5(C)C[C@@H](O)[C@H](O)[C@@](C)(CO)[C@@H]5CC[C@]43C)[C@@H]2[C@@H]1O"
endpoint_result = 1


In the following, a different molecule is considered.
Give Ki for the following molecule: COc1c(O)cc2c(=O)oc3c(O)c(OC4OC(C)C(O)C(O)C4O)cc4c(=O)oc1c2c34 (centres unmarked)
42
